test system: OCI-AML2; assay: cell viability relative to vehicle control; higher = less cytotoxic; conditions: 10 µM; SRSF2 genotype: wt/wt;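 also: after 48 h exposure read by CellTiter-Glo luminescence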
Structures can show the parent of a compound that is named as a salt.
Lab note: compare cell viability with 90%, writing Met if less and Not met if equal or more.

# compound, category
measured = [
    ("Cc1cc(Nc2cc(N3CCN(C)CC3)nc(Sc3ccc(NC(=O)C4CC4)cc3)n2)n[nH]1 [VX-680 (MK-0457, Tozasertib)]", "Met"),
    ("Cc1cc(=O)n(-c2ccccc2)n1C [Antipyrine]", "Not met"),
    ("Clc1ccc2nsnc2c1NC1=NCCN1 [Tizanidine HCl]", "Not met"),
    ("CCN1CCC[C@H]1CNC(=O)c1cc(S(N)(=O)=O)ccc1OC [Levosulpiride (Levogastrol)]", "Not met"),
    ("CO[C@H]1C[C@H](O[C@H]2[C@H](C)O[C@@H](O[C@@H]3/C(C)=C/C[C@@H]4C[C@@H](C[C@]5(C=C[C@H](C)[C@@H](C6CCCCC6)O5)O4)OC(=O)[C@@H]4C=C(C)[C@@H](O)[C@H]5OC/C(=C\\C=C\\[C@@H]3C)[C@]54O)C[C@@H]2OC)O[C@@H](C)[C@@H]1O [Doramectin]", "Met"),
]

Query string: For COC(=O)N(C)c1c(N)nc(-c2nn(Cc3ccccc3F)c3ncccc23)nc1N [Riociguat (BAY 63-2521)] , is the recorded cell viability below the cut-off of 90%?
Result string: Not met

Query string: Also `Cc1cc(CN2CCN(c3c(Br)cnc4nc(-c5ccc(N6CCN(C)CC6)cc5)[nH]c34)CC2)no1` ?
Result string: Met

* * *

test system: MARIMO; test: cell viability relative to vehicle control; higher = less cytotoxic; settings: 10 µM; SRSF2 genotype: SRSF2 P95H/wt
Counter-ions that a name gives are not always drawn.
Could you please report measured cell viability for the items listed next?
Numbers only, in %.

# compound, recordedEndpoint, assayValue
measured = [
    ("CN(CCO)CC(O)Cn1cnc2c1c(=O)n(C)c(=O)n2C (configuration not stated) [Xanthinol Nicotinate]", "cell viability", 98.2),
    ("CC[C@@]1(O)C(=O)OCc2c1cc1n(c2=O)Cc2cc3c(CN(C)C)c(O)ccc3nc2-1 [Topotecan HCl]", "cell viability", 5.05),
    ("CNc1cccc(CCOc2ccc3c(c2)CN(CC(F)(F)F)C(=O)[C@H](CC(=O)O)C3)n1", "cell viability", 96.1),
    ("O=c1c2cc(O[C@@H]3O[C@H](CO)[C@@H](O)[C@H](O)[C@H]3O)c(O)cc2oc2cc(O)c([C@@H]3O[C@H](CO)[C@@H](O)[C@H](O)[C@H]3O)c(O)c12", "cell viability", 93.8),
]

Please state, for each entry, its recorded cell viability.
1. O=C(Nc1ccccc1Br)N[C@@H]1CCN(c2ccc(C(F)(F)F)cn2)C1
2. CC1OC(OC2C(OC3CCC4(C)C(CCC5(C)C4CC=C4C6CC(C)(C)CCC6(C(=O)OC6OC(COC7OC(CO)C(O)C(O)C7O)C(O)C(O)C6O)CCC45C)C3(C)CO)OCC(O)C2O)C(O)C(O)C1O (configuration not stated) [Dipsacoside B]
3. CCn1c(=O)c(-c2ccc(-c3cncs3)cc2Cl)cc2cnc(Nc3ccc(N4CCN(C)CC4)cc3)nc21

Result string:
1. 89.3
2. 97.5
3. 75.6

* * *

test system: MOLM14; assay: cell viability relative to vehicle control; higher = less cytotoxic; conditions: 10 µM; SRSF2 genotype: SRSF2 wt/wt
Structures can show the parent of a compound that is named as a salt.
recordedEndpoint: cell viability (%)
Numbers only, in %.

Use these answered entries as a reference point.
# compound, cell viability (%)
records = [
    ("CCOC(=O)[C@H](CCc1ccccc1)N[C@@H](C)C(=O)N1Cc2ccccc2C[C@H]1C(=O)O [Quinapril hydrochloride (Accupril)]", 103),
    ("Cc1[nH]c2ccccc2c1CCNC(=O)c1cccs1", 99.4),
    ("COc1c(O)cc2c(c1O)C(=O)c1c(cc(C)c(O)c1OC)C2=O [Aurantio-obtusin]", 88.9),
]

Below: the item to evaluate.
Query string: State the recorded cell viability for this entry: `C=CC(=O)Nc1cc(Nc2nccc(-c3cn(C)c4ccccc34)n2)c(OC)cc1N(C)CCN(C)C`
Result string: 0.44

* * *

test system: OCI-AML2; test: cell viability relative to vehicle control; higher = less cytotoxic; details: 10 µM; SRSF2 genotype: wt/wt
recordedEndpoint: cell viability

# compound, recordedEndpoint, assayValue
data = [
    ("CC#C[C@]1(O)CC[C@H]2[C@@H]3CCC4=CC(=O)CCC4=C3[C@@H](c3ccc(N(C)C)cc3)C[C@@]21C [Mifepristone (Mifeprex)]", "cell viability", "92.6%"),
    ("COc1cc2ncnc(Nc3ccc(Oc4ccccc4)cc3C)c2cc1OC", "cell viability", "43%"),
    ("O=c1[nH]cnc2nc[nH]c12 [Hypoxanthine]", "cell viability", "105%"),
    ("CCOC(=O)C1OC1C(=O)NC(CC(C)C)C(=O)NCCC(C)C (stereo not drawn)", "cell viability", "104%"),
    ("CC(C)=CCCC(C)=CCCC(C)=CCCC(C)=CCC1=C(C)C(=O)c2ccccc2C1=O [Vitamin K2]", "cell viability", "89.1%"),
]

Report cell viability for each item below.
1. OC[C@@H](O)[C@@H](O[C@@H]1O[C@H](CO)[C@H](O)[C@H](O)[C@H]1O)[C@H](O)[C@@H](O)CO [Lactitol]
2. CN(Cc1cnc2nc(N)nc(N)c2n1)c1ccc(C(=O)N[C@@H](CCC(=O)O)C(=O)O)cc1 [Abitrexate (Methotrexate)]
3. NC(=O)c1cnc(N[C@@H]2CCCC[C@@H]2N)nc1Nc1cccc(-n2nccn2)c1

Result string:
1. 95.1%
2. 96.9%
3. 3.84%

* * *

system: K562; assay: cell viability relative to vehicle control; higher = less cytotoxic; details: 10 µM; SRSF2 genotype: SRSF2 wt/wt
Sorting guide: entries reporting cell viability beneath 90% go in the yes (1) pile, the rest go in the no (0) pile.

# compound, category
rows = [
    ("COc1cc(Nc2ncc(F)c(Nc3ccc4c(n3)NC(=O)C(C)(C)O4)n2)cc(OC)c1OC", "no (0)"),
]

Query string: Strictly below 90% in cell viability? C=C1CCC2C(C)(CO)C(O)CCC2(C)C1CC=C1C=COC1=O (stereo unspecified) [Dehydroandrographolide]
Result string: yes (1)

Query string: Param item: `Cc1cn([C@H]2O[C@@H](CO)[C@H](O)[C@H]2F)c(=O)[nH]c1=O`
Result string: no (0)

Query string: Then `C[C@@]12C[C@@]3(O)O[C@@H](O1)[C@]1(COC(=O)c4ccccc4)[C@@H]3C[C@]12O[C@@H]1O[C@H](COC(=O)c2ccccc2)[C@@H](O)[C@H](O)[C@H]1O` ?
Result string: no (0)

Query string: Repeat for the following compound: `NC(=O)N1CCC(CC(=O)N2CCC([C@H]3c4ncc(Br)cc4CCc4cc(Cl)cc(Br)c43)CC2)CC1`
Result string: yes (1)

* * *

Field: cell viability. Provide a value for each of the molecules that follow.
system: K562; assay: cell viability relative to vehicle control; higher = less cytotoxic; settings: 10 µM; SRSF2 genotype: SRSF2 wt/wt
Where a name gives a salt, the structure may show the parent alone.
Numbers only, in %.

# molecule, recordedEndpoint, assayValue
records = [
    ("COc1cc2ncnc(Oc3ccc(CC(=O)Nc4cnn(C(C)C)c4)cc3)c2cc1OC", "cell viability", 72.4),
    ("Cc1ccc(-c2csc(NC(=O)c3ccccc3)n2)c(C)c1", "cell viability", 81.5),
    ("O=C(O)CC(O)(CC(=O)OCc1ccc(O[C@@H]2O[C@H](CO)[C@@H](O)[C@H](O)[C@H]2O)cc1)C(=O)OCc1ccc(O[C@@H]2O[C@H](CO)[C@@H](O)[C@H](O)[C@H]2O)cc1 (stereo not given in full)", "cell viability", 109),
]

Give cell viability for each listed item.
1. Cc1ccc2c(=O)c3cccc(CC(=O)O)c3oc2c1C
2. N=C(N)NC(=N)NCCc1ccccc1 [Phenformin hydrochloride]
3. CCCC(=O)O[C@]1(C(=O)COC(C)=O)CC[C@H]2[C@@H]3C[C@H](F)C4=CC(=O)C=C[C@]4(C)[C@@]3(F)[C@@H](O)C[C@@]21C [Difluprednate]
4. O=c1c2cc(O)c(O)cc2oc2cc(O)c([C@@H]3O[C@H](CO)[C@@H](O)[C@H](O)[C@H]3O)c(O)c12
5. OCCN(CCO)c1nc(N2CCCCC2)c2nc(N(CCO)CCO)nc(N3CCCCC3)c2n1 [Dipyridamole (Persantine)]
6. Cc1c(OCC(F)(F)F)ccnc1C[S+]([O-])c1nc2ccccc2[nH]1 (stereo not given)

Result string:
90.5
91.7
99.4
99.3
94.8
90

Each of the following entries comes with a recorded value; kindly state cell viability for each.
1. CCOC(=O)c1c2c3c(cccc3[nH]c1=O)C(=O)c1ccccc1-2
2. NS(=O)(=O)c1cc2c(cc1Cl)N=CNS2(=O)=O [Chlorothiazide]
3. CCN(CC)c1ccc2c(-c3ccccc3C(=O)O)c3ccc(=[N+](CC)CC)cc-3oc2c1
4. CN(C)CCc1c[nH]c2ccc(C[C@H]3COC(=O)N3)cc12 [Zolmitriptan (Zomig)]
5. C[C@H]1[C@H](C)CC[C@]2(C(=O)O[C@@H]3O[C@H](CO[C@@H]4O[C@H](CO)[C@@H](O[C@@H]5O[C@@H](C)[C@H](O)[C@@H](O)[C@H]5O)[C@H](O)[C@H]4O)[C@@H](O)[C@H](O)[C@H]3O)CC[C@]3(C)C(=CC[C@@H]4[C@@]5(C)C[C@@H](O)[C@H](O)[C@@](C)(CO)[C@@H]5[C@H](O)C[C@]43C)[C@H]12 [Madecassoside]
6. CO/N=C(\C(=O)N[C@@H]1C(=O)N2C(C(=O)O)=C(Cn3ccc(=N)n3CCO)CS[C@H]12)c1csc(N)n1 [Cefoselis sulfate]

Result string:
1. 90.7
2. 94.5
3. 53
4. 104
5. 103
6. 94

Where these numbers come from: the supplement of paper PMC10981050
